experiment: chemical genetic growth profiling, strain panel (AID 1159580);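 further: tested at 20 µM; growth read once vehicle control cultures reached saturation at 30 °C; 1 = growth at the plate median or of vehicle wells; lower values mean less growth of the strain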; conditions: S. cerevisiae deletion strains, growth OD, locus YER155C, strain BEM2 (second series), hits give low values
Out of some 5,500 compounds screened, about 2,000 (36%) were called active. Another 18% or so got no clear call; they are omitted. The list shows a part of the results.
Listed here: items and their measured normalized growth.
Respond with the number and no other words.

Please review the following examples before continuing.
>>> measurement("COc1ccc(C(=O)O)cc1OC")
0.988
>>> measurement("C=CCc1ccc(OC)cc1")
1.04
>>> measurement("CCCCC/C=C/CCC(=O)N[C@H]1[C@H](Oc2c3cc4cc2Oc2ccc(cc2Cl)[C@@H](O[C@@H]2O[C@H](CO)[C@@H](O)[C@H](O)[C@H]2NC(C)=O)[C@@H]2NC(=O)[C@H](NC(=O)[C@@H]4NC(=O)[C@H]4NC(=O)C(Cc5ccc(c(Cl)c5)O3)NC(=O)[C@H](N)c3ccc(O)c(c3)Oc3cc(O)cc4c3)c3ccc(O)c(c3)-c3c(OC4O[C@H](CO)[C@@H](O)[C@H](O)[C@@H]4O)cc(O)cc3[C@@H](C(=O)O)NC2=O)O[C@H](CO)[C@@H](O)[C@@H]1O (stereo partly specified)")
1.01
>>> measurement("COc1ccc(-c2coc3cc(O)ccc3c2=O)c(OC)c1")
0.977
>>> measurement("CC(C)NCC(O)COc1cccc2[nH]ccc12 (stereo unspecified)")
0.97

Attention now turns to another entry.
Task: Consider the molecule shown here: c1ccc2c(c1)CCCC2C1=NCCN1 (stereo unspecified) What is its recorded normalized growth?
Result: 1.04

Data provenance is PubChem BioAssay AID1159580.
